Listed compounds paired with reported chromatographic logP
assay: physchem; settings: pH 2.7

- COMPOUND: "CC(C)=NOCC(=O)N1CCC(c2nc(C3=NOC(c4ccccc4OS(C)(=O)=O)C3)cs2)CC1 (centres unmarked)"
  chromatographic logP: 2.36
- COMPOUND: "CS(=O)(=O)Oc1cc(C(F)(F)F)ccc1C1CC(C(=O)CCl)=NO1 (centres unmarked)"
  chromatographic logP: 3.25
- COMPOUND: "CC(C)(C)OC(=O)N1CCC(c2nc(C3=NOC(c4ccc(C(F)(F)F)cc4OS(C)(=O)=O)C3)cs2)CC1 (centres unmarked)"
  chromatographic logP: 4.36
- COMPOUND: "C#CCOc1ccccc1C1CC(C(C)=O)=NO1 (centres unmarked)"
  chromatographic logP: 4.41
- COMPOUND: "COC(C)(OC)C(CC(O)c1ccccc1OCC#C[Si](C)(C)C)=NO (centres unmarked)"
  chromatographic logP: 3.19

---

test: physchem; settings: pH 2.7
Entries and their chromatographic logP
MEASURE: chromatographic logP

- COMPOUND: "CC(=O)OCC(=O)N1CCC(c2nc(C3=NOC(c4ccccc4OS(C)(=O)=O)C3)cs2)CC1 (stereo not drawn) [X-3]"
  OBSERVED_VALUE: 2.18
- COMPOUND: "CS(=O)(=O)Oc1ccccc1C1CC(c2csc(C3CCN(C(=O)CO)CC3)n2)=NO1 (stereo not drawn) [XXVIIa-142]"
  OBSERVED_VALUE: 1.88
- COMPOUND: "CC(C)(C)[Si](C)(C)OCC(=O)N1CCC(c2nc(C3=NOC(c4ccccc4OS(C)(=O)=O)C3)cs2)CC1 (stereo not drawn) [X-2]"
  OBSERVED_VALUE: 4.14
- COMPOUND: "CC(C)=NOCC(=O)N1CCC(c2nc(-c3cc(-c4ccccc4C=O)on3)cs2)CC1 [I-8]"
  OBSERVED_VALUE: 2.45
- COMPOUND: "CN(C)CC(=O)N1CCC(c2nc(C3=NOC(c4ccccc4OS(C)(=O)=O)C3)cs2)CC1 (stereo not drawn) [X-1]"
  OBSERVED_VALUE: 1.48
- COMPOUND: "CS(=O)(=O)Oc1ccccc1C1CC(c2csc(C3CCN(C(=O)CCl)CC3)n2)=NO1 (stereo not drawn) [Xc-a-142]"
  OBSERVED_VALUE: 2.42
